Values from patent US5654427A

molecular target: trkA (Rattus norvegicus); construct: are rat pheochromocytoma cells that bear trkA; host or cells: PC12 rat pheochromocytoma cells; assay: inhibition of NGF-stimulated trk autophosphorylation (tyrosine phosphorylation) in PC12 cells, anti-phosphotyrosine Western blot; assay type: cell-based; conditions: 100 nM compound, NGF 50 ng/ml; also: key: +: Inhibited phosphorylation; -: Did not inhibit phosphorylation
Sequence (P35739 33-799): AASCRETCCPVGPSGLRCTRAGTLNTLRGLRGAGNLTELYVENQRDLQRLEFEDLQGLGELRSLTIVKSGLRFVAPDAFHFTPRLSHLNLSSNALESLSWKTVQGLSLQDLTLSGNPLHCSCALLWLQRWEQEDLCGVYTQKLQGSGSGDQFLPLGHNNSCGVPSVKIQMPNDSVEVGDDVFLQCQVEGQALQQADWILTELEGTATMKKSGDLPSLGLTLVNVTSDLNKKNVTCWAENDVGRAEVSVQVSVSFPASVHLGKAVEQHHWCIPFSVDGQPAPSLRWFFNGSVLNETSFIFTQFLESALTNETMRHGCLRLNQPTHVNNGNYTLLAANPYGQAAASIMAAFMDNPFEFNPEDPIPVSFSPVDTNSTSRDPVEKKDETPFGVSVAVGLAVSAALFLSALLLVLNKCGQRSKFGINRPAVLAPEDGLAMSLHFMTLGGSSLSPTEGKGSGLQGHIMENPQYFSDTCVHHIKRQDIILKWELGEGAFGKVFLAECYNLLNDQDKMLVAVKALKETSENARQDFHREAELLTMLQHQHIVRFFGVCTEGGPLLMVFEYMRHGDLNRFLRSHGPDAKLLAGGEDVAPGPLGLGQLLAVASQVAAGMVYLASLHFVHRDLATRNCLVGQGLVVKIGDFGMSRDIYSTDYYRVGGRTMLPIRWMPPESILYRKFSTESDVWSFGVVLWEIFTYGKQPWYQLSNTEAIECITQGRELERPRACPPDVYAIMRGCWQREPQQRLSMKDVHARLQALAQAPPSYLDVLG
Parameter: trk 100 nM (inhibition of phosphorylation)

- Compound: "CC12OC(CC1(O)CNC(=O)CN)n1c3ccccc3c3c4c(c5c6ccccc6n2c5c31)CNC4=O (centres unmarked) [Compound I-32]"
  System under test: "trkA (Rattus norvegicus)"
  Result: "+"
- Compound: "COC(=O)CC1(O)CC2OC1(C)n1c3ccccc3c3c4c(c5c6ccccc6n2c5c31)C(=O)NC4 (centres unmarked) [Compound I-31]"
  System under test: "trkA (Rattus norvegicus)"
  Result: "+"
- Compound: "COC(=O)C1(O)CC2OC1(C)n1c3ccccc3c3c4c(c5c6cc(NC(=O)Nc7ccccc7)ccc6n2c5c31)C(=O)NC4 (centres unmarked) [Compound I-27]"
  System under test: "trkA (Rattus norvegicus)"
  Result: "-"
- Compound: "CC12OC(CC1(O)C(=O)NCCO)n1c3ccccc3c3c4c(c5c6ccccc6n2c5c31)CNC4=O (centres unmarked) [Compound I-12]"
  System under test: "trkA (Rattus norvegicus)"
  Result: "+"
- Compound: "CC12OC(CC1(O)C[S+]([O-])c1ccccn1)n1c3ccccc3c3c4c(c5c6ccccc6n2c5c31)CNC4=O (centres unmarked) [Compound I-40]"
  System under test: "trkA (Rattus norvegicus)"
  Result: "+"
- Compound: "CNC(=O)C1(O)CC2OC1(C)n1c3ccccc3c3c4c(c5c6ccccc6n2c5c31)C(=O)NC4 (centres unmarked) [Compound I-54]"
  System under test: "trkA (Rattus norvegicus)"
  Result: "+"
- Compound: "CC1(C)OCC2(CC3OC2(C)n2c4ccccc4c4c5c(c6c7ccccc7n3c6c42)C(=O)NC5)O1 (centres unmarked) [Compound I-13]"
  System under test: "trkA (Rattus norvegicus)"
  Result: "+"
- Compound: "CC12OC(CC1(O)CO)n1c3ccc(Br)cc3c3c4c(c5c6cc(Br)ccc6n2c5c31)CNC4=O (centres unmarked) [Compound I-42]"
  System under test: "trkA (Rattus norvegicus)"
  Result: "+"
- Compound: "CCCNC(=O)C1(O)CC2OC1(C)n1c3ccccc3c3c4c(c5c6ccccc6n2c5c31)C(=O)NC4 (centres unmarked) [Compound I-10]"
  System under test: "trkA (Rattus norvegicus)"
  Result: "+"
- Compound: "CC12OC(CC1(O)C=NNC(=N)N)n1c3ccccc3c3c4c(c5c6ccccc6n2c5c31)CNC4=O (centres unmarked) [Compound I-29]"
  System under test: "trkA (Rattus norvegicus)"
  Result: "-"

-- ask Sample COC(=O)C1(O)CC2OC1(C)n1c3ccc(Br)cc3c3c4c(c5c6cc(Br)ccc6n2c5c31)C(=O)NC4 (centres unmarked) [Compound I-39] — what was its trk 100 nM (inhibition of phosphorylation)?
-- reply +
